Task for the reader: assign each of the following sequences its reported shrunken log2 fold change.
- Tested on: Escherichia coli TOP10;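 also: peptides expressed intracellularly from a pBAD plasmid library in pooled LB shake-flask culture, induced with 0.3% L-arabinose, DNA abundance read by NGS, three biological replicates, DESeq2 with apeglm shrinkage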
- Assay Protocol: shrunken log2 fold change of peptide-encoding DNA abundance (4.5 h post-induction vs induction); higher = less antimicrobial activity (less host growth inhibition)
- Condition Label: time post-induction: 4.5 h; library: site-saturation at positions 5, 18, 19, 20
Give bare numbers.

Please review the entries below; each comes with its answer.
> print(dat)
            sequence.input  value.measured
1  RRIRARPPRLPRPRPRPPVDPRP           0.545
2  RRIRLRPPRLPRPRPRPNHRPRP         0.00288
3  RRIRHRPPRLPRPRPRPAFPPRP            0.46
4  RRIRLRPPRLPRPRPRPHDEPRP          0.0746
5  RRIRQRPPRLPRPRPRPAPYPRP           0.204

Please go through the list and note shrunken log2 fold change for each sequence.
1. RRIRTRPPRLPRPRPRPKTRPRP
2. RRIRSRPPRLPRPRPRPSNSPRP
3. RRIRDRPPRLPRPRPRPTHYPRP
4. RRIRVRPPRLPRPRPRPFYIPRP
5. RRIRARPPRLPRPRPRPMLDPRP
6. RRIRRRPPRLPRPRPRPPVPPRP
7. RRIRMRPPRLPRPRPRPTKCPRP

Result:
1. 0.221
2. -0.145
3. -0.103
4. -0.457
5. 0.504
6. 0.753
7. 0.331

List shrunken log2 fold change for every entry below, keeping the order given.
1. RRIRYRPPRLPRPRPRPPPCPRP
2. RRIRNRPPRLPRPRPRPPQVPRP
3. RRIRRRPPRLPRPRPRPVPAPRP
4. RRIRSRPPRLPRPRPRPPHDPRP
5. RRIRPRPPRLPRPRPRPVYCPRP
6. RRIRWRPPRLPRPRPRPQCNPRP
7. RRIRRRPPRLPRPRPRPAFGPRP

Result:
0.574
0.0214
1.06
0.277
-0.375
-0.0929
0.348
